Test system: CEM cells
TEST: Cytostatic assay, CEM
Type: cell-based
CONDITION_PARAMETERS: CEM cells; Table 7, 5-arylthiomethyl-substituted 2-amino-3-carboxymethylthiophenes; read-out: IC50 (μM) CEM
MEASURE_NAME: IC50 (µM)

Tell me the measured IC50 of `COC(=O)c1cc(CSCc2ccccc2)sc1N` , please.
3.5

I. COC(=O)c1cc(CSc2ccc(OC)cc2)sc1N
II. COC(=O)c1cc(CSc2cccc(C)c2)sc1N [TJ54P]
III. COC(=O)c1cc(CSc2ccccc2)sc1N
Order the items by recorded IC50; the first position goes to the largest value. Answer format: the labels, in the requested order.
II, III, I
(II: 4.1 µM, III: 1.3 µM, I: 0.62 µM)

###

Test system: BAEC aortic endothelial cells
TEST: Cytostatic assay, BAEC
Type: cell-based, bovine
CONDITION_PARAMETERS: Bos taurus, Table 3
Description: To each well of a 96-well microtiter plate were added 5-7.5×10^4 cells and a given amount of the test compound. The cells were allowed to proliferate for 48 h to 96 h (depending on the nature of the cell line) at 37° C. in a humidified CO2-controlled atmosphere. At the end of the incubation period, the cells were counted in a Coulter Counter (Coulter Electronics Ltd, Harpenden Herts, United Kingdom).
MEASURE_NAME: IC50 (µM)

Worked cases, IC50 given:
Requested read-out: IC50. Entry: COC(=O)c1cc(CCc2ccc(OC)cc2C)sc1N [TR583]
44

Quick one: IC50 of CCOC(=O)c1c(N)sc(CCc2ccc(OC)cc2)c1C(=O)OCC [TR547] ?
82

I. COC(=O)c1cc(CCc2cc(OC)ccc2OC)sc1N [TR584]
II. COC(=O)c1cc(-c2cc(OC)ccc2OC)sc1N [TR601]
Could you point out whether the larger IC50 belongs to I or to II ? Answer by quoting the chosen item's label.
II
(II: 26 µM, I: 2 µM)

1. CCOC(=O)c1cc(CCc2cc(OC)ccc2OC)sc1N [TR587]
2. CCOC(=O)c1cc(C#Cc2ccc(OC)cc2)sc1N [TR530]
Of the two listed items, which has the higher IC50? First: 1 Second: 2 Selection: enter the item's label.
2
(2: 16 µM, 1: 0.93 µM)

###

System: BAEC aortic endothelial cells
TEST: Cytostatic assay, BAEC
Assay type: cell-based, bovine
CONDITION_PARAMETERS: Bos taurus, Table 3
MEASURE_NAME: IC50 (µM)

Past entries and their recorded results:
Endpoint output: IC50 of COC(=O)c1cc(CCc2ccccc2OC)sc1N [TR567] . Value?
20

Give the measured IC50 of CCOC(=O)c1cc(CCc2ccc(OC)cc2)sc1N [TR532] .
23

For COc1ccc(CCc2cc(C#N)c(N)s2)cc1 [TR586] , what is its reported IC50?
38

A. COc1ccccc1CCc1cc(C#N)c(N)s1 [TR585]
B. COC(=O)c1cc(CCc2ccsc2)sc1N [TR595]
Of A and B , which carries the smaller reported IC50 figure? Answer by quoting the chosen item's label.
A
(A: 9.7 µM, B: 27 µM)

###

System: CEM cells
TEST: Cytostatic assay, CEM
Format: cell-based
CONDITION_PARAMETERS: Homo sapiens, CCRF-CEM; Table 2; read-out: Cytostatic activity (μM) CEM
MEASURE_NAME: IC50 (µM)

Example results:
# input molecule: `CCOC(=O)c1c(N)sc(CCc2cc(OC)ccc2OC)c1C(=O)OCC` ; wanted: its IC50
20

Using the record for `N#Cc1cc(CCc2ccccc2)sc1N` , report its IC50.
47

Tell me the measured IC50 of `COC(=O)c1cc(-c2ccccc2OC)sc1N` , please.
55

Endpoint output: IC50 of `COC(=O)c1cc(CCc2cc(OC)ccc2OC)sc1N` . Value?
1.6

Record request: IC50 value, item `COC(=O)c1cc(CCc2ccccn2)sc1N`
63

1. COC(=O)c1cc(CCc2ccccc2)sc1N
2. CCOC(=O)c1c(N)sc(CCc2ccc(OC)cc2)c1C(=O)OCC
// compare measured IC50 between 1 and 2 ; output the lower one # reply format: chosen label
1
(1: 1.5 µM, 2: 72 µM)

###

Tested on: HeLa cervix carcinoma cells
TEST: Cytostatic assay, HeLa
Type: cell-based, human
CONDITION_PARAMETERS: Homo sapiens; Table 3; read-out: Cytostatic activity (μM) Hela
MEASURE_NAME: IC50 (µM)

Solved cases (3 shown):
# IC50 lookup, item COc1ccc(-c2cc(C#N)c(N)s2)cc1 [TR582]
168

Endpoint output: IC50 of COC(=O)c1cc(CCc2ccc(OC)cc2C)sc1N [TR583] . Value?
105

Entry under review: CCOC(=O)c1cc(-c2ccc(OC)cc2)sc1N [TR525] . Reported IC50?
39

a. COC(=O)c1cc(-c2cc(OC)ccc2OC)sc1N [TR601]
b. COC(=O)c1cc(-c2ccc(OC)cc2)sc1N [TR572]
Out of a and b , name the one with the higher IC50. Please reply using the label of the selected record.
b

P. COC(=O)c1c(N)sc(CCc2cc(OC)ccc2OC)c1C [TR599]
Q. COC(=O)c1cc(CCc2ccccc2OC)sc1N [TR567]
Between these two entries, P and Q , state which has the higher IC50. # reply format: chosen label
P
(P: 38 µM, Q: 17 µM)

###

Test system: Caki-2 kidney carcinoma cells
TEST: Cytostatic assay, Caki-2
Format: cell-based
CONDITION_PARAMETERS: Homo sapiens, Table 3
MEASURE_NAME: IC50 (µM)

Past entries and their recorded results:
Which IC50 is reported for this compound? `COC(=O)c1cc(-c2ccc(OC)cc2)sc1N`
9

Which IC50 value belongs to `COc1ccc(OC)c(CCc2cc(C#N)c(N)s2)c1` ?
0.042

a. CCOC(=O)c1c(N)sc(CCc2cc(OC)ccc2OC)c1C(=O)OCC
b. COC(=O)c1cc(-c2cc(OC)ccc2OC)sc1N
c. CCOC(=O)c1cc(CCc2ccccc2OC)sc1N
d. CCOC(=O)c1cc(-c2ccc(OC)cc2)sc1N
e. CCOC(=O)c1cc(CCc2ccc(OC)cc2)sc1N
Parameters: sort_field (IC50), sort_dir (desc). Show the ranking through the labels, in the order asked for.
d, e, a, b, c

I. COc1ccc(CCc2cc(C#N)c(N)s2)cc1
II. COC(=O)c1cc(CCc2ccsc2)sc1N
Which value of IC50 is numerically greater: that of I or that of II ? Kindly state the label of the option you pick.
II

###

Tested on: C8166 cells
TEST: Cytostatic assay, C8166
Assay type: cell-based
CONDITION_PARAMETERS: Homo sapiens, Table 2
MEASURE_NAME: IC50 (µM)

Check out these entries, answers already filled in.
C8166 cells / IC50 / CCOC(=O)c1cc(C#Cc2ccc(OC)cc2)sc1N [TR530] : value?
2.8

Fill in the recorded IC50 for this compound, with C8166 cells as test system: CCOC(=O)c1c(N)sc(CCc2cc(OC)ccc2OC)c1C(=O)OCC [TR592]
25

Give recorded IC50 with C8166 cells for the following compound: CCOC(=O)c1cc(CCc2ccccc2OC)sc1N [TR542]
143

Hello, I am looking for reported IC50 with C8166 cells for COC(=O)c1cc(CCc2ccccc2OC)sc1N [TR567] . Could you help?
3

Provide the documented IC50 with C8166 cells as the system for COc1ccc(CCc2cc(C#N)c(N)s2)cc1 [TR586]
57

I. CCOC(=O)c1cc(CCc2cc(OC)ccc2OC)sc1N [TR587]
II. CCOC(=O)c1c(N)sc(CCc2ccc(OC)cc2)c1C(=O)OCC [TR547]
Which value of IC50 is numerically greater: that of I or that of II ? State the label of the item chosen.
II

###

Tested on: HepG2C3A hepatoma cells
TEST: Cytostatic assay, HepG2C3A
Format: cell-based
CONDITION_PARAMETERS: Homo sapiens, HepG2/C3A; Table 4
MEASURE_NAME: IC50 (µM)

Known IC50 results, listed for orientation:
If you can, please state the reported IC50 value of COC(=O)c1cc(-c2cc(OC)ccc2OC)sc1N [TR601] .
22

Bench note: what IC50 did CCOC(=O)c1cc(C#Cc2ccc(OC)cc2)sc1N [TR530] show?
12

What does the record list as IC50 for COC(=O)c1cc(CCc2ccccc2)sc1N [TR575] ?
10

a. COC(=O)c1c(N)sc(CCc2cc(OC)ccc2OC)c1C [TR599]
b. CCOC(=O)c1cc(CCc2ccc(OC)cc2)sc1N [TR532]
Could you determine which record has the numerically smaller IC50? Candidates: a and b Refer to your chosen entry by its label in the reply.
b
(b: 6.7 µM, a: 34 µM)
